Just for reference, PubChem BioAssay (NCI) is where these values come from.

Test system: SF-539 CNS
Assay: NCI-60 one-dose screen, 48 h (100 = growth as untreated, 0 = no growth, -100 = all killed)
Settings: 10 µM unless noted
About 83,000 compounds went through this panel and 20% of them were active in at least one assay; those are over-represented in the sample as a whole.
observable: growth (%)
# output: bare number, implied unit %

These recorded examples may help you get a feel for the data.
| molecule | quantityUnit | val |
| --- | --- | --- |
| COc1ccc(NC(=O)CSc2oc(-c3ccccc3)nc2S(=O)(=O)c2ccc(Cl)cc2)c(OC)c1 | % | 0.354 |
| O=C(CN1C(=O)NC2NC(=O)NC21)N/N=C/c1cccc([N+](=O)[O-])c1 (centres undefined) | % | 100 |
| COc1cccc(CNc2nnc(C)c(C)n2)c1O | % | 99.7 |
| CNC(=O)c1cc(Oc2ccc3nc(NC(=O)NC(C)C)sc3c2)ccn1 | % | 76.9 |

Exercise: Suppose we examine the molecule CC(C)=CCC[C@](C)(O)C1CC[C@]2(C)[C@@H]1CC[C@@H]1[C@@]3(C)CC/C(=N\OCCC#N)C(C)(C)[C@@H]3CC[C@]12C (some centres undefined) ; what growth value has been reported?
Key: 91.9

Exercise: Suppose we examine the molecule Cn1nc(-c2ccc(Cl)cc2)nc2c(=O)n(C)c(=O)nc1-2 ; what growth value has been reported?
Key: -99.2

Exercise: Suppose we examine the molecule O=C(CSc1nc(-c2ccccc2)cn1-c1ccc(Cl)cc1)c1ccc([N+](=O)[O-])cc1 ; what growth value has been reported?
Key: 92.4

Exercise: Suppose we examine the molecule CC(=O)O[C@H]1C[C@@]2(C)[C@@H](C[C@@H](O)[C@H]3[C@@]4(C)CC[C@H](N5CCCC5)[C@@H](C)[C@@H]4CC[C@@]32C)/C1=C(\CCC=C(C)C)C(=O)O ; what growth value has been reported?
Key: 96.1

Exercise: Suppose we examine the molecule COc1cccc(-c2nn(-c3ccccc3)cc2-c2ccnc(-c3cccnc3)c2)c1 ; what growth value has been reported?
Key: 90.1
